These data points were gathered from BindingDB's records for doi:10.1016/j.bmcl.2012.07.045.

- targetDesc: UniProtKB P43405
- testSummary: Inhibition of human recombinant full-length Syk using poly-GT as substrate after 40 mins by radioactive filtration assay
pIC50: −log10 of the molar value.
Decide by pIC50: equal to or exceeding 8 means true (1), less means false (0).

moleculeSmiles: Cc1ccnc(Nc2cccc(-c3ccnc(NCCCN)c3)n2)c1
qualitativeLabel: false (0)
//
moleculeSmiles: Cc1ccnc(Nc2cccc(-c3cccc(N)c3)n2)c1
qualitativeLabel: false (0)
//
moleculeSmiles: Nc1cc(Nc2cnccn2)nc(-c2ccnc(N3CCNCC3)c2)c1
qualitativeLabel: true (1)
//
moleculeSmiles: Cc1ccnc(Nc2cccc(-c3cccnc3)n2)c1
qualitativeLabel: false (0)
//
moleculeSmiles: CC(=O)N1CCC(C(=O)Nc2cc(Nc3cnccn3)nc(-c3ccnc(N4CCNCC4)c3)c2)CC1
qualitativeLabel: true (1)
//
moleculeSmiles: CNc1cc(Nc2cnccn2)nc(-c2ccnc(N3CCNCC3)c2)c1
qualitativeLabel: true (1)
//
moleculeSmiles: Cc1ccnc(Nc2cccc(-c3cccc(CCN)c3)n2)c1
qualitativeLabel: false (0)
